Listing of recorded Growth Rate by entry.
tested on: HEK-293T; assay: Incucyte cell viability with HEK293T; type: toxicity, cell-based; details: human, 0 h, 10 µM, compound concentration 10 uM, replicate number 1, timepoint 0 hours; further: filed as whole numbers so only -1 and 0 and 1 occur
Would you mind answering with just the numeric figure?

// worked examples, Growth Rate included
{"compound": "CS(=O)(=O)N1CCCC(NC(=O)[C@H](CCC2CCCCC2)NC(=O)c2ccc(CNC(=O)c3cnc4ccccn34)cc2)C1 (stereo partly drawn) [SR-302]", "reported_value": 0}
{"compound": "N#CCNC(=O)c1ccc(-c2ccnc(Nc3ccc(N4CCOCC4)cc3)n2)cc1 [MOMELOTINIB]", "reported_value": 0}
{"compound": "C=CC(=O)Nc1cc(-n2c(=O)ccc3cnc4ccc(-c5ccc(NS(C)(=O)=O)cc5)cc4c32)ccc1C", "reported_value": 0}
{"compound": "CC(/C=C1\\SC(=S)N(CCCC(=O)Nc2ccc(C(=O)O)c(O)c2)C1=O)=C\\c1ccccc1", "reported_value": 0}
{"compound": "COc1cc(OC)c(NC(=O)c2ccc(Cc3cc4c(cc3C)C(C)(C)CCC4(C)C)o2)c(OC)c1", "reported_value": 1}
{"compound": "CCCCC#Cc1nc(NC)c2ncn([C@@H]3O[C@H](CO)[C@@H](O)[C@H]3O)c2n1", "reported_value": 0}

Prompt: Note down Growth Rate recorded for Cc1ccc2[nH]c(CNCCCc3ccncc3)cc(=O)c2c1 [UCSF924NC]
Completion: 1

Prompt: Note down Growth Rate recorded for CC(C)c1ccc(CC(=O)N2CCC[C@@H](c3cccc(OC(C)(C)C(=O)O)c3)C2)cc1
Completion: 1

---

system: U2OS; experiment: Multiplex assay against U2OS; assay type: toxicity, cell-based; conditions: human, 12 h, 10 µM, compound concentration 10 uM, replicate 2
Threshold-based label: Population Healthy Nuclei (%) under 80% gives criterion met, Population Healthy Nuclei (%) not under 80% gives criterion not met.

{"compound": "CN1C(=O)[C@@H](NC(=O)c2cc3ccccc3[nH]2)N=C(c2ccccc2)c2ccccc21 [DEVAZEPIDE]", "assigned_label": "criterion met"}
{"compound": "N#CCNC(=O)c1ccc(-c2ccnc(Nc3ccc(N4CCOCC4)cc3)n2)cc1", "assigned_label": "criterion met"}
{"compound": "CC[C@@]1(O)C(=O)OCc2c1cc1n(c2=O)Cc2cc3ccccc3nc2-1", "assigned_label": "criterion met"}

Prompt: Is Population Healthy Nuclei (%) of Cc1ccc(NC(=O)Nc2cc(C(F)(F)F)ccc2F)cc1Nc1ccc2c(c1)NC(=O)/C2=C\c1ccc[nH]1 strictly below 80%?
Completion: criterion not met

Prompt: Is Population Healthy Nuclei (%) of CCOC(=O)CCNc1cc(N2CCc3ccccc3CC2)nc(-c2ccccn2)n1 strictly below 80%?
Completion: criterion not met

---

test system: HEK-293T; assay: Multiplex assay against HEK293T; type: toxicity, cell-based; conditions: human, 48 h, 1 µM, compound concentration 1 uM, replicate 1
value_kind: Population Pyknosed Nuclei (%)
Numbers only here, please. The scale is %.

{"compound": "CC(C)c1cc(Nc2nc(N3CCC[C@H](N)C3)ncc2C(N)=O)cc(C(C)C)n1", "readout_units": "%", "reported_value": 46}
{"compound": "Oc1cccc(-c2nc(N3CCOCC3)c3oc4ncccc4c3n2)c1 [PI-103]", "readout_units": "%", "reported_value": 71}
{"compound": "N#CCNC(=O)c1ccc(-c2ccnc(Nc3ccc(N4CCOCC4)cc3)n2)cc1 [MOMELOTINIB]", "readout_units": "%", "reported_value": 13}
{"compound": "CCCc1cc(C)[nH]c(=O)c1CNC(=O)c1cc(-c2ccc(N3CCN(C(C)C)CC3)nc2)cc2c1cnn2C(C)C", "readout_units": "%", "reported_value": 33}
{"compound": "CC(C)C[C@H](NC(=O)[C@H](Cc1ccccc1)NC(=O)CNC(=O)CNC(=O)[C@@H](N)Cc1ccc(O)cc1)C(=O)O [ENKEPHALIN]", "readout_units": "%", "reported_value": 46}

Prompt: Note down Population Pyknosed Nuclei (%) recorded for CC(Cc1ccc(O)c(O)c1)C(C)Cc1ccc(O)c(O)c1 (stereo not drawn) [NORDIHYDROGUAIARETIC ACID]
Completion: 20

Prompt: Note down Population Pyknosed Nuclei (%) recorded for N#Cc1cccc(C(=O)Nc2cc(-c3ccccc3)nn2-c2ccccc2)c1
Completion: 38

Prompt: Note down Population Pyknosed Nuclei (%) recorded for Cl.NC[C@@H]1O[C@H](C23CC4CC(CC(C4)C2)C3)Cc2c1ccc(O)c2O
Completion: 7

---

tested on: U2OS; assay: Multiplex assay against U2OS; format: toxicity, cell-based; conditions: human, 12 h, 10 µM, compound concentration 10 uM, replicate 1
value_kind: Population Normal (%)
Numbers only here, please. The scale is %.

// worked examples, Population Normal (%) included
{"compound": "N#Cc1cccc(C(=O)Nc2cc(-c3ccccc3)nn2-c2ccccc2)c1", "reported_value": 93}
{"compound": "c1ccc(-c2oc3ncnc(NC[C@@H]4CCCO4)c3c2-c2ccccc2)cc1", "reported_value": 89}
{"compound": "CC(C)c1cc(Nc2nc(N3CCC[C@H](N)C3)ncc2C(N)=O)cc(C(C)C)n1", "reported_value": 95}
{"compound": "CC[C@@H]1C(=O)N(C)c2cnc(Nc3ccc(C(=O)NC4CCN(C)CC4)cc3OC)nc2N1C1CCCC1", "reported_value": 97}

Then there is this compound:
Prompt: Note down Population Normal (%) recorded for Cl.Cn1c2c(c3ccc(Cl)c(Cl)c31)C(C#N)C1(CCNCC1)NC2=O (stereo not given)
Completion: 96

---

tested on: HEK-293T; experiment: Multiplex assay against HEK293T; assay type: toxicity, cell-based; details: human, 24 h, 10 µM, compound concentration 10 uM, replicate 1
value_kind: Population Mitochondria Different-Phenotype (%)
Numbers only here, please. The scale is %.

// worked examples, Population Mitochondria Different-Phenotype (%) included
{"compound": "CC[C@@H]1C(=O)N(C)c2cnc(Nc3ccc(C(=O)NC4CCN(C)CC4)cc3OC)nc2N1C1CCCC1 [BI-2536]", "assay_target": "HEK-293T", "reported_value": 80}
{"compound": "CCCCCNC(=N)N/N=C/c1c[nH]c2ccc(OC)cc12.O=C(O)/C=C\\C(=O)O [TEGASEROD MALEATE]", "assay_target": "HEK-293T", "reported_value": 100}
{"compound": "Cl.NC[C@@H]1O[C@H](C23CC4CC(CC(C4)C2)C3)Cc2c1ccc(O)c2O", "assay_target": "HEK-293T", "reported_value": 78}
{"compound": "Cc1c(Nc2ccc(S(=O)(=O)N3CCN(C)CC3)cc2F)nc2ccc(Nc3cnn(C4CC4)c3)cn2c1=O", "assay_target": "HEK-293T", "reported_value": 3}
{"compound": "NC(=O)c1ccc2nc(-c3ccc(C4(N)CCC4)cc3)c(-c3ccccc3)n2n1 [BAY-1125976]", "assay_target": "HEK-293T", "reported_value": 4}

Prompt: Note down Population Mitochondria Different-Phenotype (%) recorded for CCOC(=O)CCNc1cc(N2CCc3ccccc3CC2)nc(-c2ccccn2)n1
Completion: 54

Prompt: Note down Population Mitochondria Different-Phenotype (%) recorded for Cc1c(P(=S)(c2ccccc2)c2ccccc2)n2ccccc2[n+]1C/C=C/c1ccccc1.[Br-]
Completion: 100

Prompt: Note down Population Mitochondria Different-Phenotype (%) recorded for CCCc1cc(C)[nH]c(=O)c1CNC(=O)c1cc(-c2ccc(N3CCN(C(C)C)CC3)nc2)cc2c1cnn2C(C)C
Completion: 96

---

Listing of recorded Growth Rate by entry.
test system: U2OS; test: Incucyte cell viability with U2OS; format: toxicity, cell-based; details: human, 18 h, 10 µM, compound concentration 10 uM, replicate number 1, timepoint 18 hours; further: filed as whole numbers so only -1 and 0 and 1 occur
Would you mind answering with just the numeric figure?

// worked examples, Growth Rate included
{"molecule": "c1ccc(-c2oc3ncnc(NC[C@@H]4CCCO4)c3c2-c2ccccc2)cc1", "reported_value": 0}
{"molecule": "NC(=O)[C@@H]1CCCN1C(=O)[C@H](Cc1cnc[nH]1)NC(=O)[C@@H]1CCC(=O)N1 [PROTIRELIN]", "reported_value": 0}
{"molecule": "CCCc1cc(C)[nH]c(=O)c1CNC(=O)c1cc(-c2ccc(N3CCN(C(C)C)CC3)nc2)cc2c1cnn2C(C)C", "reported_value": 0}

Prompt: Note down Growth Rate recorded for CCN1CCC[C@H]1CNC(=O)c1c(OC)ccc(Br)c1OC [REMOXIPRIDE]
Completion: 0

Prompt: Note down Growth Rate recorded for CC(Cc1ccc(O)c(O)c1)C(C)Cc1ccc(O)c(O)c1 (configuration not stated) [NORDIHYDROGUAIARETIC ACID]
Completion: 0

Prompt: Note down Growth Rate recorded for CC(C)c1ccc(CC(=O)N2CCC[C@@H](c3cccc(OC(C)(C)C(=O)O)c3)C2)cc1
Completion: 1

Prompt: Note down Growth Rate recorded for CC[C@@H]1C(=O)N(C)c2cnc(Nc3ccc(C(=O)NC4CCN(C)CC4)cc3OC)nc2N1C1CCCC1 [BI-2536]
Completion: 0

Prompt: Note down Growth Rate recorded for C=CC(=O)Nc1cc(-n2c(=O)ccc3cnc4ccc(-c5ccc(NS(C)(=O)=O)cc5)cc4c32)ccc1C
Completion: 0

Prompt: Note down Growth Rate recorded for CC(C)(O)c1cncc(-c2nc3ccc(F)cc3n2C2CC2)c1 [MSD-CYP11B2]
Completion: 0

Prompt: Note down Growth Rate recorded for COc1ncc(F)cc1CNc1ccc(Cc2c[nH]c3ncc(C)cc23)c(F)n1 [PLX-5622]
Completion: 0

Prompt: Note down Growth Rate recorded for CCCCN(CC)c1nc(C)nc2c1c(C)cn2-c1c(C)cc(C)cc1C.Cl
Completion: 0

Prompt: Note down Growth Rate recorded for COc1cccc(-c2c(C)n(Cc3c(F)cccc3C(F)(F)F)c(=O)n(C[C@H](NCCCC(=O)[O-])c3ccccc3)c2=O)c1F.[Na+] [ELAGOLIX SODIUM]
Completion: 0

Prompt: Note down Growth Rate recorded for CNC(=O)Nc1ccc2c(c1)CC[C@@]21OC(=O)N(CC(=O)N(Cc2ccc(F)cc2)[C@@H](C)C(F)(F)F)C1=O [A-485]
Completion: 1

Prompt: Note down Growth Rate recorded for COc1ccccc1-c1cc(Nc2cccc(CS(N)(=O)=O)c2)ncn1
Completion: 0

Prompt: Note down Growth Rate recorded for CCC(=O)NC1Cc2ccccc2C(c2ccccc2)C1 (configuration not stated)
Completion: 1

Prompt: Note down Growth Rate recorded for CC(C)(N)C(=O)N[C@H](COCc1ccccc1)C(=O)N1CCC2(CC1)CN(S(C)(=O)=O)c1ccccc12.CS(=O)(=O)O [IBUTAMOREN MESYLATE]
Completion: 1

Prompt: Note down Growth Rate recorded for COc1cc(N2CCC(O)CC2)ccc1Nc1cc(Nc2ccccc2S(=O)(=O)C(C)C)c2cc[nH]c2n1
Completion: 1

The measurements presented in this section are drawn from ChEMBL document CHEMBL4689842.
